- Test details: reversal of MRP1-mediated doxorubicin resistance, pilot screen, H69AR cells, doxorubicin co-treatment (AID 601)
- Experimental context: H69AR cells, CellTiter-Glo, 72 h; compound alone cytotoxicity; at 10 µM
Would you mind telling me the reported viability of each entry?
Answers are plain numbers, in %.

Record excerpt, results attached:
Molecule: O=C(NCc1ccc2c(c1)OCO2)c1cccc2c1C(=O)N(C1CCCCC1)C2
Measure name: viability
Obs value: 59.2
--
Molecule: CCCCC[C@H](O)/C=C/C1=C(CCCCCCC(=O)O)C(=O)CC1
Measure name: viability
Obs value: 92.5
--
Molecule: COc1ccccc1OC(=O)c1ccc(SC)cc1OC
Measure name: viability
Obs value: 94.1
--
Molecule: CCOc1nc(NCCC2=CCCCC2)nc(N2CCOCC2)n1
Measure name: viability
Obs value: 96.7
--
Molecule: O=C(CSc1nc(-c2ccc(F)cc2)cs1)N1CCOCC1
Measure name: viability
Obs value: 94.4

Please look at the items below and tell me viability for each one, in order.
1. Cc1ccc2nc3c(cc2c1)CN(Cc1ccco1)C(=NCC1CCCO1)S3 (stereo not drawn)
2. Cn1nc(-c2ccc(N3CCCCC3)c(NC(=O)c3ccco3)c2)c2ccccc2c1=O
3. COc1ccc(S(=O)(=O)NC(C)C(=O)Nc2cccc(C(C)=O)c2)cc1 (stereo not drawn)
4. O=C(CSc1nnc2scc(-c3ccccc3)n12)Nc1nsc(-c2ccccc2)n1
5. COc1ccc2c(C)nc(Nc3nc(C)cc(C)n3)nc2c1
6. CCOC(=O)CNC(=O)Cn1cnc2c(nnn2-c2cccc(Cl)c2)c1=O

a:
[7.64, 32.3, 98.1, 61.1, 87.3, 107]

Give viability for each of the items listed below.
1. O=C(O)CCc1ccc(-c2ccc(F)cc2)n1CCC(=O)O
2. c1coc(CN(Cc2cccs2)Cc2nnnn2C2CCCCC2)c1
3. Cc1ccnc(NS(=O)(=O)c2ccc(NC(=O)Cc3cccs3)cc2)n1
4. O=S(=O)(NCc1ccccn1)c1ccc2c(c1)OCCO2
5. Cn1c(=O)cc(SCC(=O)NCc2cccnc2)c2ccccc21

a:
1. 98.5
2. 75.7
3. 100
4. 109
5. 92.7

Would you mind giving viability for every molecule in the list below?
1. Cc1cc(NS(=O)(=O)c2ccc(NC(=O)C(C)N3C(=O)c4ccccc4C3=O)cc2)nc(C)n1 (stereo not drawn)
2. Cc1cc(C)c2nc(C(F)(F)F)nc(NCCCN3CCCC3=O)c2c1
3. COc1ccc(NC(=O)Nc2ccccc2C)c(OC)c1
4. COc1ccc(CCN(Cc2cc3cccc(C)c3[nH]c2=O)C(=O)N2CCCC2)cc1OC
5. CCN1CCN(c2nc3c(c(=O)n(C)c(=O)n3C)n2CCSc2ncccn2)CC1
6. O=C(CSc1nc(O)cc(=O)n1-c1ccccc1)N1CCCCC1

a:
[97.4, 83.7, 89, 98.8, 94.8, 98.8]

q: Note viability for the molecule shown: COc1ccc(CSCCN)cc1Cl
a: 39.2
